Quick reference for cell viability among some compounds
Tested on: HCT116
Assay notes: cell viability (CellTiter-Glo) relative to plate median (fraction of plate median); higher = more viable cells
Condition set: 10 µM; treatment time 24 h; reporter: TCF4/Wnt
The response must contain the number and no unit.

// worked examples, cell viability included
COc1cc2/c(=N/c3ccc(Br)cc3F)nc[nH]c2cc1OCC1CCN(C)CC1 [Vandetanib (Zactima)]
1.14
CN1CCN(c2ccc3nc(-c4c(N)c5c(F)cccc5[nH]c4=O)[nH]c3c2)CC1 [Dovitinib Dilactic acid (TKI258 Dilactic acid)]
0.967
Cc1ccc(F)c(NC(=O)Nc2ccc(-c3cccc4[nH]nc(N)c34)cc2)c1
0.764

Next item in the queue.
Query: I'm curious: which cell viability was measured for `NC1(Cc2ccc(Cl)cc2)CCN(c2ncnc3[nH]ccc23)CC1` tested on HCT116?
Result: 0.787

The values you see were collected from the supplement of paper PMC6522484.
